For each entry below, report its Efficacy value.
# test-target: Glucocorticoid receptor (Homo sapiens) (UniProt P04150)
# Sequence (P04150 whole entry): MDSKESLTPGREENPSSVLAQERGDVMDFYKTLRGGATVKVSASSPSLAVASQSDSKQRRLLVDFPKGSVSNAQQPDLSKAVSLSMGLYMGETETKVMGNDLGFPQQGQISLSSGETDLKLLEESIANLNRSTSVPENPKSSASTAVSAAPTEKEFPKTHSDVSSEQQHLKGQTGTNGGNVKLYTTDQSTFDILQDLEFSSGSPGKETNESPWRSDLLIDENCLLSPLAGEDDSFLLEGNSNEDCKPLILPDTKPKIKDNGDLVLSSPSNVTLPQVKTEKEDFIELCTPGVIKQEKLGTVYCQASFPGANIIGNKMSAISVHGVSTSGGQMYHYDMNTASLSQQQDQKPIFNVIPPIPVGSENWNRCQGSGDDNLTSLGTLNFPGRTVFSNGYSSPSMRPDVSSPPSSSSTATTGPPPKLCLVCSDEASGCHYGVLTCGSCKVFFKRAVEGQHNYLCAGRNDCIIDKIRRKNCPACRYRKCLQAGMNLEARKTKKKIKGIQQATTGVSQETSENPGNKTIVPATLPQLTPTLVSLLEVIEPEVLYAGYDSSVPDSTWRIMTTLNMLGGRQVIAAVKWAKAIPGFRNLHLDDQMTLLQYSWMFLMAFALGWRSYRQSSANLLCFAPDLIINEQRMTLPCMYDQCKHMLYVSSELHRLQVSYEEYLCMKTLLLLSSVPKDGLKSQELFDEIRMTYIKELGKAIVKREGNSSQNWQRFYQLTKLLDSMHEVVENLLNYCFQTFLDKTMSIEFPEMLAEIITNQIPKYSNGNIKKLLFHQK
# assay-notes: Transrepression activity at glucocorticoid receptor in human A549 cells assessed as inhibition of IL1beta-stimulated NFkappaB-dependent E-selectin transcription by luciferase reporter gene assay relative to dexamethasone
# Format: cell-based
// return numeric value only (unit: %, not printed)

Entry CC(=O)NCC(C)(C)[C@@H](c1ccccc1)c1ccc2c(cnn2-c2ccc(F)cc2)c1 ; Efficacy = 58

Entry CC(C)(C)C(=O)NCC(C)(C)[C@@H](c1ccccc1)c1ccc2c(cnn2-c2ccc(F)cc2)c1 ; Efficacy = 80

Entry CC(C)(CNC(=O)C(F)(F)F)[C@@H](c1ccccc1)c1ccc2c(cnn2-c2ccc(F)cc2)c1 ; Efficacy = 39

Entry CC(CNS(C)(=O)=O)[C@@H](c1ccccc1)c1ccc2c(cnn2-c2ccc(F)cc2)c1 (stereo not given in full) ; Efficacy = 105

Entry CC(C)(CNS(=O)(=O)C1CC1)[C@@H](c1ccccc1)c1ccc2c(cnn2-c2ccc(F)cc2)c1 ; Efficacy = 82
